- test-target: Cytochrome P450 2C19 (Homo sapiens, UniProt P33261)
- Sequence (P33261 whole entry): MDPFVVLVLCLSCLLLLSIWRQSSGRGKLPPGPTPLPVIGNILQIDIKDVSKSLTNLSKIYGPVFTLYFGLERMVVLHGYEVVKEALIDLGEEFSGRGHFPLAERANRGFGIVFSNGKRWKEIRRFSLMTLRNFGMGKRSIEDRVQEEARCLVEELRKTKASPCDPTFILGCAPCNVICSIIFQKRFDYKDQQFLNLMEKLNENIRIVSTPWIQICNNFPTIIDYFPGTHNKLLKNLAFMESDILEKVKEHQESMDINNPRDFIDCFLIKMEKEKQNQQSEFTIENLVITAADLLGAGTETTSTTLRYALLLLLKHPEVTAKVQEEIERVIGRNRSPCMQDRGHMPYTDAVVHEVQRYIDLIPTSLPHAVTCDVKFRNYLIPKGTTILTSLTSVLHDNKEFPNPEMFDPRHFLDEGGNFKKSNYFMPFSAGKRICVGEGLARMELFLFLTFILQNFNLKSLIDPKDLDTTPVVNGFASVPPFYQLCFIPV
pIC50: −log10 of the molar value.

# smiles-notation, pIC50
records = [
    ("O=C(O)c1cc(-c2ccc([C@]3(O)[C@@H]4CNC[C@H]3C4)cc2)c2ccc(-c3ccc(C(F)(F)F)cc3)cc2c1", "< 4.52"),
]

---

- experiment-description: Cmax in Wistar rat plasma at 3 mg/kg, ip and measured upto 24 hrs
- Assay type: ADME, organism-based
- Parameters: dose 3 mg/kg, time < 24 hrs, route ip

# smiles-notation, Cmax
measured = [
    ("O=C(O)c1cc(-c2ccc([C@]3(O)[C@@H]4CNC[C@H]3C4)cc2)c2ccc(-c3ccc(C(F)(F)F)cc3)cc2c1", "1300 nM"),
]

---

- test-target: P2Y purinoceptor 14 (Mus musculus)
- Sequence (Q9ESG6 whole entry): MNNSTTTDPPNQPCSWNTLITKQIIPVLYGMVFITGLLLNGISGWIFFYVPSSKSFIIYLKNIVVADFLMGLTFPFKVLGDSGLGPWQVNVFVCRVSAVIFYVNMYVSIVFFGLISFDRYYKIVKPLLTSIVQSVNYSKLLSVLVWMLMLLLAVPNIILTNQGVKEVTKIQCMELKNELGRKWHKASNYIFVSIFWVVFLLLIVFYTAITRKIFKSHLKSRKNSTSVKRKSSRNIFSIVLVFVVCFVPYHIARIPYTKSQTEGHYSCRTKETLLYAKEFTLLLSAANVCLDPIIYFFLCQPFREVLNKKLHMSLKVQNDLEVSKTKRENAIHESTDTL
- experiment-description: Displacement of fluorescent tracer 4-(4-(1-(4-(1-(6-(3-carboxylato-4-(3-iminio-3H-xanthen-9-yl)benzamido)hexyl)-4,5-dihydro-1H-pyrrol-3-yl)butyl)piperidin-1-ium-4-yl)phenyl)-7-(4-(trifluoromethyl)phenyl)-2-naphthoate from mouse P2Y14R stably expressed in human HEK293 cells by flow cytometry

# molecule, result-units, IC50
rows = [
    ("O=C(O)c1cc(-c2ccc(C3(O)C[C@H]4CNC[C@@H]4C3)cc2)c2ccc(-c3ccc(C(F)(F)F)cc3)cc2c1 (racemic)", "nM", 6.78),
    ("O=C(O)c1cc(-c2ccc([C@]3(O)[C@@H]4CNC[C@H]3C4)cc2)c2ccc(-c3ccc(C(F)(F)F)cc3)cc2c1", "nM", 4.8),
    ("O=C(O)c1cc(-c2ccc(C3=C[C@H]4CNC[C@@H]4C3)cc2)c2ccc(-c3ccc(C(F)(F)F)cc3)cc2c1 (racemic)", "nM", 5.57),
    ("O=C(O)c1cc(-c2ccc(C3CCCNCCC3)cc2)c2ccc(-c3ccc(C(F)(F)F)cc3)cc2c1", "nM", 11.6),
    ("O=C(O)c1cc(-c2ccc(C3CCCNCC3)cc2)c2ccc(-c3ccc(C(F)(F)F)cc3)cc2c1 (racemic)", "nM", 25.7),
    ("O=C(O)c1cc(-c2ccc(C3=CC4(CNC4)C3)cc2)c2ccc(-c3ccc(C(F)(F)F)cc3)cc2c1", "nM", 15.9),
]

---

- experiment-description: Stability in mouse plasma assessed as half life at 1 uM and measured at 120 mins by LC-MS/MS analysis
- Assay type: ADME, cell-free
measurement-label: half-life at 1 µM (min)

# molecule, measurement-label, quantitative-result
data = [
    ("O=C(O)c1cc(-c2ccc(C3CCNCC3)cc2)c2ccc(-c3ccc(C(F)(F)F)cc3)cc2c1 [PPTN]", "half-life at 1 µM", 1.5),
    ("CN(C)C(=O)COC(=O)c1cc(-c2ccc([C@H]3C[C@H]4C[C@@H]3CN4)cc2)c2ccc(-c3ccc(C(F)(F)F)cc3)cc2c1", "half-life at 1 µM", 1.5),
]

---

- experiment-description: Cmax in CD-1 mouse at 10 mg/kg,po and measured at 1 hrs by LC-MS/MS analysis
- Assay type: ADME, organism-based
- Design: dose 10 mg/kg, time 1 hrs, route po
- conditions: in vivo
measurement-label: Cmax (ng/mL)

# smiles-notation, quantitative-result
measured = [
    ("CCOC(=O)N1CCC(c2ccc(-c3cc(C(=O)OCC(=O)N(C)C)cc4cc(-c5ccc(C(F)(F)F)cc5)ccc34)cc2)CC1", 2000),
]

---

- test-target: Alpha-1B adrenergic receptor (Homo sapiens, UniProt P35368)
- Sequence (P35368 whole entry): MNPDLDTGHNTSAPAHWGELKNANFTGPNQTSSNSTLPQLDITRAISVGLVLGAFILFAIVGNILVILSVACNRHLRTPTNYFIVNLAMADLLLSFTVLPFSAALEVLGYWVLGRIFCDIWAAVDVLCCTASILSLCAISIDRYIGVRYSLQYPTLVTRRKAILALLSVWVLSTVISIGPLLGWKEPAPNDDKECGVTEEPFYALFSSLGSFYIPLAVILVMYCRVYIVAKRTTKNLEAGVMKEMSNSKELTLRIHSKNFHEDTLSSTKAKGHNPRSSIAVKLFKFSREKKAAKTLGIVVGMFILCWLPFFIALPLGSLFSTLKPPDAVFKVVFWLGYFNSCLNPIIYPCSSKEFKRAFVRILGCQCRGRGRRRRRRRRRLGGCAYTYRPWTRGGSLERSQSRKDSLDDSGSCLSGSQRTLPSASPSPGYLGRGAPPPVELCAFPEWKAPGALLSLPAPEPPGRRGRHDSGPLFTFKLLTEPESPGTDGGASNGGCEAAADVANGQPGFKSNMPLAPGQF
measurement-label: Ki (µM)

# compound, quantitative-result
rows = [
    ("O=C(O)c1cc(-c2ccc(C3(O)C[C@H]4CNC[C@@H]4C3)cc2)c2ccc(-c3ccc(C(F)(F)F)cc3)cc2c1 (racemic)", 6.4),
    ("O=C(O)c1cc(-c2ccc(C3=CC4(CNC4)C3)cc2)c2ccc(-c3ccc(C(F)(F)F)cc3)cc2c1", 7.3),
]

---

- test-target: Sigma non-opioid intracellular receptor 1 (Homo sapiens)
- Sequence (Q99720 whole entry): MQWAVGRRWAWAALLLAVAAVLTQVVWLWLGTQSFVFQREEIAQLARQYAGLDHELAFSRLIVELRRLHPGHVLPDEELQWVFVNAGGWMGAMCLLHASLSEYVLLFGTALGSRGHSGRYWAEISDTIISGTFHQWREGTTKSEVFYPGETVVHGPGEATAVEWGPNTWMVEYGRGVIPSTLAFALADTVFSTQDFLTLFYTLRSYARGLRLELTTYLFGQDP
- experiment-description: Displacement of [3H]-Pentazocine from human sigma 1 receptor assessed as inhibition constant by radioligand displacement assay

# compound, Ki (nM)
rows = [
    ("O=C(O)c1cc(-c2ccc(C3CCCNCC3)cc2)c2ccc(-c3ccc(C(F)(F)F)cc3)cc2c1 (racemic)", 890),
]

---

Recorded pKi for the following molecules
- test-target: 5-hydroxytryptamine receptor 1B (Homo sapiens, UniProt P28222)
- Sequence (P28222 whole entry): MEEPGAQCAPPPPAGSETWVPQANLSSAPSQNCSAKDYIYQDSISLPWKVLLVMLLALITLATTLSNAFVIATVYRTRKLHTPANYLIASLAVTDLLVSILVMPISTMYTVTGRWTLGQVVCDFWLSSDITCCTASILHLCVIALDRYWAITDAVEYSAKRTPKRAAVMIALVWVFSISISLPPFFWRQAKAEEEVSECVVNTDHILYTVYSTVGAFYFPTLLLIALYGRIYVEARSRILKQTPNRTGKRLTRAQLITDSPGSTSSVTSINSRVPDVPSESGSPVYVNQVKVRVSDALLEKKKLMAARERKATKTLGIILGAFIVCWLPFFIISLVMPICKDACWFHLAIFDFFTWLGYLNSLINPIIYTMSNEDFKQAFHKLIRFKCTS
pKi: −log10 of the molar value.

# molecule, pKi
data = [
    ("O=C(O)c1cc(-c2ccc([C@]3(O)[C@@H]4CNC[C@H]3C4)cc2)c2ccc(-c3ccc(C(F)(F)F)cc3)cc2c1", 5.22),
    ("O=C(O)c1cc(-c2ccc(C3(O)C[C@H]4CNC[C@@H]4C3)cc2)c2ccc(-c3ccc(C(F)(F)F)cc3)cc2c1 (racemic)", 5.27),
    ("O=C(O)c1cc(-c2ccc(C3=CC4(CNC4)C3)cc2)c2ccc(-c3ccc(C(F)(F)F)cc3)cc2c1", 5.17),
    ("O=C(O)c1cc(-c2ccc(C3CCCNCC3)cc2)c2ccc(-c3ccc(C(F)(F)F)cc3)cc2c1 (racemic)", 5.35),
]

---

- experiment-description: Cmax in Wistar rat plasma at 10 mg/kg, ip and measured upto 24 hrs
- Format: ADME, organism-based
- Set-up: time < 24 hrs, dose 10 mg/kg, route ip
measurement-label: Cmax (µM)

# smiles-notation, quantitative-result
measured = [
    ("O=C(O)c1cc(-c2ccc([C@]3(O)[C@@H]4CNC[C@H]3C4)cc2)c2ccc(-c3ccc(C(F)(F)F)cc3)cc2c1", 4),
]

---

- test-target: Cytochrome P450 2C9 (Homo sapiens)
- Sequence (P11712 whole entry): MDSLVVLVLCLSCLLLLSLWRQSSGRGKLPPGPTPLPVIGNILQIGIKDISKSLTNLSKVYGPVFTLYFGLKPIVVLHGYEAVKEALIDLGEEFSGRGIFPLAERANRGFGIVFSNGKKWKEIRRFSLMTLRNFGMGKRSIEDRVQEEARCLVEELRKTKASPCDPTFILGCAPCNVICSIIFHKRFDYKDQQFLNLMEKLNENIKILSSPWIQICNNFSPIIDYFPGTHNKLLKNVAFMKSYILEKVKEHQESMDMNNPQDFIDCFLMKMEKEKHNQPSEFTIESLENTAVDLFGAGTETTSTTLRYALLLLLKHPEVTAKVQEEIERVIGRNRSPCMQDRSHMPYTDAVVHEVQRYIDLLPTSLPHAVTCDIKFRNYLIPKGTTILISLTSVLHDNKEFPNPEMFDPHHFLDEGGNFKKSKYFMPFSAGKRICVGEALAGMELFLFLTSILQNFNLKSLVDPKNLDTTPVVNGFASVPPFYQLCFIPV
pIC50: −log10 of the molar value.
measurement-label: pIC50

# smiles-notation, test-target, measurement-label, result
data = [
    ("O=C(O)c1cc(-c2ccc([C@]3(O)[C@@H]4CNC[C@H]3C4)cc2)c2ccc(-c3ccc(C(F)(F)F)cc3)cc2c1", "Cytochrome P450 2C9 (Homo sapiens)", "pIC50", "< 4.52"),
]

---

- Tested on: HepG2
- experiment-description: Cytotoxicity in human HepG2 cells assessed as reduction in cell viability
- Format: toxicity, cell-based
measurement-label: IC50 (µM)

# smiles-notation, measurement-label, quantitative-result
rows = [
    ("O=C(O)c1cc(-c2ccc([C@]3(O)[C@@H]4CNC[C@H]3C4)cc2)c2ccc(-c3ccc(C(F)(F)F)cc3)cc2c1", "IC50", 32.6),
]

---

- test-target: Cytochrome P450 2D6 (Homo sapiens)
- Sequence (P10635 whole entry): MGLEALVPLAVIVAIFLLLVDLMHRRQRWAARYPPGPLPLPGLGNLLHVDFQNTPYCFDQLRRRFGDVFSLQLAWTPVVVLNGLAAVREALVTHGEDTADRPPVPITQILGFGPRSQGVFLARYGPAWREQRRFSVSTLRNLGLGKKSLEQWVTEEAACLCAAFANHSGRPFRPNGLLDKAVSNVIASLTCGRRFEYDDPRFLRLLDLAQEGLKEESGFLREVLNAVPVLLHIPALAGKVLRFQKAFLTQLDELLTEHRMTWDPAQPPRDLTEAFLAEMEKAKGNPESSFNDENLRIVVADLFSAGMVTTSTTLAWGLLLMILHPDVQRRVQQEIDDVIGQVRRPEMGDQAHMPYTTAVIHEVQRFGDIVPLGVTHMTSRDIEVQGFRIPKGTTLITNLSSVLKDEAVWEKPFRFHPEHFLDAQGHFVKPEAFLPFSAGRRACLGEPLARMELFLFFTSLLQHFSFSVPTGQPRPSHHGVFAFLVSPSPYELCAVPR
- experiment-description: Inhibition of CYP2D6 (unknown origin)
- Assay type: ADME
measurement-label: IC50

# smiles-notation, result
data = [
    ("O=C(O)c1cc(-c2ccc([C@]3(O)[C@@H]4CNC[C@H]3C4)cc2)c2ccc(-c3ccc(C(F)(F)F)cc3)cc2c1", "> 30 µM"),
]

---

Recorded pIC50 for the following compounds
- test-target: UniProt:Q15391
- Sequence (Q15391 whole entry): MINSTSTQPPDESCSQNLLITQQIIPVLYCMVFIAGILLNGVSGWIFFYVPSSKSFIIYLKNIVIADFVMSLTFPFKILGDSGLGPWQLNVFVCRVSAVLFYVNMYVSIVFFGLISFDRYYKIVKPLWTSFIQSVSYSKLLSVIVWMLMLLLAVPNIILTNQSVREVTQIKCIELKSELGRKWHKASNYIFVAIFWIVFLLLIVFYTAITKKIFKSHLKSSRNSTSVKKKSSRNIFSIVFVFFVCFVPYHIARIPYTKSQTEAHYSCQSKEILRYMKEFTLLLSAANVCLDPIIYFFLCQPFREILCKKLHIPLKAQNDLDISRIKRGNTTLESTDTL
- experiment-description: Displacement of fluorescent tracer 4-(4-(1-(4-(1-(6-(3-carboxylato-4-(3-iminio-3H-xanthen-9-yl)benzamido)hexyl)-4,5-dihydro-1H-pyrrol-3-yl)butyl)piperidin-1-ium-4-yl)phenyl)-7-(4-(trifluoromethyl)phenyl)-2-naphthoate from human P2Y14R stably expressed in CHO cells by flow cytometry
pIC50: −log10 of the molar value.

# smiles-notation, test-target, pIC50
measured = [
    ("C[Si]1(C)C2=CC(=[N+]3CCC3)C=CC2=C(c2cc(C(=O)NCCCCCCn3cc(CCCCN4CCC(c5ccc(-c6cc(C(=O)O)cc7cc(-c8ccc(C(F)(F)F)cc8)ccc67)cc5)CC4)nn3)ccc2C(=O)[O-])c2ccc(N3CCC3)cc21", "UniProt:Q15391", 4.59),
    ("CCOC(=O)N1C[C@H]2C[C@@H](C1)[C@@]2(O)c1ccc(-c2cc(C(=O)O)cc3cc(-c4ccc(C(F)(F)F)cc4)ccc23)cc1", "UniProt:Q15391", 7.09),
    ("COC1(c2ccc(-c3cc(C(=O)O)cc4cc(-c5ccc(C(F)(F)F)cc5)ccc34)cc2)CC2(CNC2)C1", "UniProt:Q15391", 7.33),
]
